system: MDA-MB-435; experiment: NCI tumour cell line growth inhibition, 48 h
The source made the active and inactive calls. No stated cut-off is given here; in the data, active = GI50 up to about 1.1 µM and inactive = higher.
Give your call using only these classes: active, inactive

Solved entries (count: 6):
compound: COc1cc(/C=C2\N=C(c3ccccc3)N(c3nc4ccccc4s3)C2=O)cc(OC)c1OC
label value: inactive

compound: CC[C@@H]1/C=C/C=C/C[C@H](C)[C@@H](O)[C@@H](C)C(=O)[C@H](C)[C@@H](O)[C@H](C)C(=O)[C@H](C)[C@@H](O)[C@H](C)/C=C/C(=O)O[C@H]2[C@@H](C)[C@@H](CC1)O[C@@]1(CC[C@@H](C)[C@@H](CC(C)O)O1)[C@@H]2C (some centres undefined)
label value: inactive

compound: CN(C)CCSCCO
label value: inactive

compound: O=C(Nc1ccc(Cl)cc1)c1cc(S(=O)(=O)Nc2n[nH]c(=O)n2-c2ccccc2)c(S)cc1Cl
label value: inactive

compound: O=c1[nH]c2ccccc2n1CCCN1CCC(n2c(=O)[nH]c3cc(Cl)ccc32)CC1 [DOMPERIDONE]
label value: inactive

compound: COC(=O)C1=COC2OC3CC1C2C(C)O3 (centres undefined)
label value: inactive

Write down the call the test reported for this compound. Item: CC(C)c1ccc(O)c(=O)c(O)c1.CC(C)c1ccc(O)c(=O)cc1.CC(C)c1cccc(=O)c(O)c1.CC(C)c1ccccc(=O)c1O
inactive

Write down the call the test reported for this compound. Item: O=C1CCCC2(c3ccccc3)Nc3ccccc3N12 (centres undefined)
inactive

Write down the call the test reported for this compound. Item: C=C[C@H]1CN2CC[C@H]1C[C@@H]2[C@@H](O)c1ccnc2ccccc12 [CINCHONINE]
inactive

All figures here come from ChEMBL document CHEMBL1201862.
